Origin of values: ChEMBL document CHEMBL1124713

Reported Km values for the following compounds.
Tested on: FPGS (folylpolyglutamate synthetase)
Test Name: Kinetic constant(Km) was determined in FPGS-catalyzed reaction
Assay type: ADME
Just the number please, in µM, no unit attached.

The compound listed as CN(Cc1cnc2nc(N)nc(N)c2n1)c1ccc(C(=O)NC(CC(F)C(=O)NC(CCC(=O)O)C(=O)O)C(=O)O)cc1 (stereo not drawn) has a reported Km of 100

The compound listed as CN(Cc1cnc2nc(N)nc(N)c2n1)c1ccc(C(=O)N[C@@H](CCC(=O)O)C(=O)O)cc1 [METHOTREXATE] has a reported Km of 42

New cases:
The compound listed as CN(Cc1cnc2nc(N)nc(N)c2n1)c1ccc(C(=O)NC(CCC(=O)NC(CCC(=O)O)C(=O)O)C(=O)O)cc1 (stereo not drawn) has a reported Km of 38
